Each entry below lists one item and its recorded MIC H. influenzae 1218 value.
Test system: Haemophilus influenzae 1218
Test: MIC, microtiter broth dilution (NCCLS M100-S14), H. influenzae 1218 (susceptible)
Assay type: cell-based
Conditions: Haemophilus influenzae 1218
Source text: The assay described herein includes a panel of bacterial strains assembled to include a variety of target pathogenic species, including representatives of macrolide resistance mechanisms that have been characterized. In many cases, both the macrolide-susceptible parent strain and the macrolide-resistant strain derived from it are available to provide a more accurate assessment of the compound's ability to circumvent the resistance mechanism. […]

molecule	MIC H. influenzae 1218 / mg/L
CCC1OC(=O)C(C)C(=O)C(C)C(OC2OC(C)CC(N(C)C)C2O)C(C)(OC)CC(C)C(=O)C(C)C2N(C3CN(Cc4c(Br)cnc5cccnc45)C3)C(=O)OC12C (stereo not drawn) [Example 1.106]	1
CCC1OC(=O)C(C)C(=O)C(C)C(OC2OC(C)CC(N(C)C)C2O)C(C)(OC)CC(C)C(=O)C(C)C2N(C3CN(Cc4ccncc4Br)C3)C(=O)OC12C (stereo not drawn) [Example 1.77]	0.5
CCC1OC(=O)C(C)C(=O)C(C)C(OC2OC(C)CC(N(C)C)C2O)C(C)(OC)CC(C)C(=O)C(C)C2N(C3CN(C(C)c4ccncc4)C3)C(=O)OC12C (stereo not drawn) [Example 1.22, 1S-(pyridin-4-yl)ethyl]	16

----------
Each entry below lists one item and its recorded MIC S. pneumo. 1095 value.
Tested on: Streptococcus pneumoniae 1095
Assay type: cell-based
Conditions: S. pneumoniae 1095 (ermB); microtiter broth dilution
From the text: The assay described herein includes a panel of bacterial strains assembled to include a variety of target pathogenic species, including representatives of macrolide resistance mechanisms that have been characterized. In many cases, both the macrolide-susceptible parent strain and the macrolide-resistant strain derived from it are available to provide a more accurate assessment of the compound's ability to circumvent the resistance mechanism. […]
measured attribute: MIC S. pneumo. 1095

compound	target or test system	observed measurement
CCC1OC(=O)C(C)C(=O)C(C)C(OC2OC(C)CC(N(C)C)C2O)C(C)(OC)CC(C)C(=O)C(C)C2N(CC3CCN(Cc4cccc(OC)n4)C3)C(=O)OC12C (stereo not drawn)	Streptococcus pneumoniae 1095	<0.06 µg/mL
CC[C@H]1OC(=O)[C@H](C)C(=O)[C@H](C)[C@@H](O[C@@H]2O[C@H](C)C[C@H](N(C)C)[C@H]2O)[C@](C)(OC)C[C@@H](C)C(=O)[C@H](C)[C@H]2N(CC3(C)CN(C(=O)c4cnc5ccccc5c4)C3)C(=O)O[C@]12C.O=CO	Streptococcus pneumoniae 1095	0.25 µg/mL
CCC1OC(=O)C(C)C(=O)C(C)C(OC2OC(C)CC(N(C)C)C2O)C(C)(OC)CC(C)C(=O)C(C)C2N(C3CCN(Cc4c[nH]c5ncccc45)C3)C(=O)OC12C (stereo not drawn)	Streptococcus pneumoniae 1095	<0.06 µg/mL

----------
Test system: Streptococcus pneumoniae 1175
Type: cell-based
Settings: Streptococcus pneumoniae 1175; microtiter broth dilution
Each entry below lists one item and its recorded MIC S. pneumo. 1175 value.
measured attribute: MIC S. pneumo. 1175

compound	target or test system	observed measurement
CCC1OC(=O)C(C)C(=O)C(C)C(OC2OC(C)CC(N(C)C)C2O)C(C)(OC)CC(C)C(=O)C(C)C2N(C3CN(S(=O)(=O)c4cnn(-c5ccccc5)c4C)C3)C(=O)OC12C (stereo not drawn)	Streptococcus pneumoniae 1175	<0.06 µg/mL
CCC1OC(=O)C(C)C(=O)C(C)C(OC2OC(C)CC(N(C)C)C2O)C(C)(OC)CC(C)C(=O)C(C)C2N(C3CN(Cc4ccc(=O)n5ccccc45)C3)C(=O)OC12C (stereo not drawn)	Streptococcus pneumoniae 1175	<0.063 µg/mL
CCC1OC(=O)C(C)C(=O)C(C)C(OC2OC(C)CC(N(C)C)C2O)C(C)(OC)CC(C)C(=O)C(C)C2N(C3CN(S(=O)(=O)c4ccccc4F)C3)C(=O)OC12C (stereo not drawn)	Streptococcus pneumoniae 1175	<0.06 µg/mL
CCC1OC(=O)C(C)C(=O)C(C)C(OC2OC(C)CC(N(C)C)C2O)C(C)(OC)CC(C)C(=O)C(C)C2N(C3CN(C(c4ccccc4)c4ccncc4)C3)C(=O)OC12C (single isomer, unassigned) [Example 1.68, phenyl-(pyridin-4-yl)methyl (*)]	Streptococcus pneumoniae 1175	<0.06 µg/mL
CCC1OC(=O)C(C)C(=O)C(C)C(OC2OC(C)CC(N(C)C)C2O)C(C)(OC)CC(C)C(=O)C(C)C2N(C3CN(S(=O)(=O)c4cc(Cl)ccc4OC)C3)C(=O)OC12C (stereo not drawn)	Streptococcus pneumoniae 1175	<0.063 µg/mL
CCC1OC(=O)C(C)C(=O)C(C)C(OC2OC(C)CC(N(C)C)C2O)C(C)(OC)CC(C)C(=O)C(C)C2N(CC3CN(C(=O)c4cnn5ccccc45)C3)C(=O)OC12C (stereo not drawn)	Streptococcus pneumoniae 1175	0.12 µg/mL
CCC1OC(=O)C(C)C(=O)C(C)C(OC2OC(C)CC(N(C)C)C2O)C(C)(OC)CC(C)C(=O)C(C)C2N(C3CN(Cc4ccc(C#N)c5ncccc45)C3)C(=O)OC12C (stereo not drawn)	Streptococcus pneumoniae 1175	<0.063 µg/mL
CC[C@H]1OC(=O)[C@H](C)C(=O)[C@H](C)[C@@H](O[C@@H]2O[C@H](C)C[C@H](N(C)C)[C@H]2O)[C@](C)(OC)C[C@@H](C)C(=O)[C@H](C)[C@H]2N(CC3(C)CN(Cc4cccc5nccnc45)C3)C(=O)O[C@]12C	Streptococcus pneumoniae 1175	0.12 µg/mL
CCC1OC(=O)C(C)C(=O)C(C)C(OC2OC(C)CC(N(C)C)C2O)C(C)(OC)CC(C)C(=O)C(C)C2N(C3CN(C(=O)NCc4ccc5ncccc5c4)C3)C(=O)OC12C (stereo not drawn)	Streptococcus pneumoniae 1175	0.25 µg/mL
